- assay target: Alpha-1D adrenergic receptor (Homo sapiens) (UniProt P25100)
- Sequence (whole entry): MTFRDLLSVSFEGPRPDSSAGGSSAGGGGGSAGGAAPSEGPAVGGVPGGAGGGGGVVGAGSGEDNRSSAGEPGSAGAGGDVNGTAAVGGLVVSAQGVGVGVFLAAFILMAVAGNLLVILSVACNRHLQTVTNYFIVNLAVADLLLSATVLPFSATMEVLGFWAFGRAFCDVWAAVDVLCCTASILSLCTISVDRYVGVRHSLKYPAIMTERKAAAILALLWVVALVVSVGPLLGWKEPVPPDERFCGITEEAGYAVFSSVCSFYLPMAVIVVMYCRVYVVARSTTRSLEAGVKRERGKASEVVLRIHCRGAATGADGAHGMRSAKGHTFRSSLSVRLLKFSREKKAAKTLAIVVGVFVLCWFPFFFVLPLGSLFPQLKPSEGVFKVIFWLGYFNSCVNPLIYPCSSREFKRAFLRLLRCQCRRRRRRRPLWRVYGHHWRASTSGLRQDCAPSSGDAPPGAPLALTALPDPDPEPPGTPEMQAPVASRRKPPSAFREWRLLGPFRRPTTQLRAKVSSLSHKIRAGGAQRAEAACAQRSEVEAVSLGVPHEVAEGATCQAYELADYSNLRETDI
- measurement conditions: Compound concentration 10 µM
- Description: PDSP Primary Binding target: ADRA1D - Compounds are tested at 10 uM concentration, plate are incubated at room temperature in the dark for 90 minutes. Reaction are stopped by vacuum filtration onto 0.3% polyethyleneimine soaked filter mats using Filtermate harvester. Scintilation cocktail is then melted onto microwave-dried filters on a hot plate and the radio activity is counted in Microbia counter.
Parameter: inhibition. Scope: all listed entries.

# compound, u, inhibition
records = [
    ("C[C@@H](NCCc1ccc(O)cc1)[C@@H](O)c1ccc(O)cc1 (relative stereo)", "%", 0.11),
    ("CC(C)NC(=O)c1ccc(C#Cc2ccncc2)cn1", "%", 13.3),
    ("COc1cc2nc(N3CCN(C(=O)c4ccco4)CC3)nc(N)c2cc1OC", "%", 0),
    ("N#Cc1c[nH]c2c(C(=O)N3CCN(CCc4ccc(F)cc4)CC3)cccc12", "%", -4.02),
    ("CC1=C2C[C@H]3[C@@H](CC=C4C[C@@H](O)CC[C@@]43C)[C@@H]2CC[C@]12O[C@@H]1C[C@H](C)CN[C@H]1[C@H]2C", "%", -8.81),
    ("COC(=O)C1=C(C)NC(C)=C(C(=O)OCCCN2CCC(c3ccccc3)(c3ccccc3)CC2)[C@H]1c1cccc([N+](=O)[O-])c1", "%", 83.9),
    ("COc1cccc([C@H](O)C2CCN(CCc3ccc(F)cc3)CC2)c1OC", "%", 34.5),
    ("COc1ccc(NC(=O)c2ccc(-c3ccc(-c4noc(C)n4)cc3C)cc2)cc1OCCN(C)C", "%", 38),
    ("Clc1cccc(Cl)c1NC1=NCCN1", "%", 66.8),
    ("Nc1nc(NCCc2ccc(O)cc2)nc2nc(-c3ccco3)nn12", "%", 8.13),
    ("CCOC(=O)c1c(C)[nH]c2ccc3c(c12)CN1CCc2cc(OC)ccc2C1O3 (configuration not stated)", "%", 36.5),
    ("O=C(O)Cn1c(C(=O)Nc2nc(-c3ccccc3Cl)cs2)cc2ccccc21", "%", -3.75),
]

----------
- assay target: 5-hydroxytryptamine receptor 6 (Homo sapiens) (UniProt P50406)
- Sequence (P50406 whole entry): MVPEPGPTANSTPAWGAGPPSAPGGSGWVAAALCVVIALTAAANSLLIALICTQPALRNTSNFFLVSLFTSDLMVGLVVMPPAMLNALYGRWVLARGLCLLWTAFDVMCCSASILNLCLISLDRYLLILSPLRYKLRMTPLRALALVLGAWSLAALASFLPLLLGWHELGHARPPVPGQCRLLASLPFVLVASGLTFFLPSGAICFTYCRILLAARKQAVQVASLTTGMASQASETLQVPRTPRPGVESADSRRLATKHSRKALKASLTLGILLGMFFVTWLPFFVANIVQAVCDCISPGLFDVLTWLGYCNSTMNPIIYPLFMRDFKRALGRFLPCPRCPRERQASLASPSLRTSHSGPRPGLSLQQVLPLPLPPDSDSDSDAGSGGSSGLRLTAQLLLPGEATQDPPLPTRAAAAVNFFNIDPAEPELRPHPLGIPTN
- measurement conditions: Compound concentration 10 µM; call rule not given here
Classes used: 1 = active, 0 = inactive

# molecule, assay target, label value
data = [
    ("COc1ccccc1CN[C@H]1C2CCN(CC2)[C@H]1C(c1ccccc1)c1ccccc1", "5-hydroxytryptamine receptor 6 (Homo sapiens) (UniProt P50406)", 0),
    ("Cc1nnn(-c2ccc(-c3ccc(C4(C(=O)O)CC4)cc3)cc2)c1NC(=O)O[C@H](C)c1ccccc1", "5-hydroxytryptamine receptor 6 (Homo sapiens) (UniProt P50406)", 0),
    ("NCCc1c[nH]c2ccc(C(N)=O)cc12", "5-hydroxytryptamine receptor 6 (Homo sapiens) (UniProt P50406)", 1),
    ("COc1ccc2cc(S(=O)(=O)N[C@H](CC(=O)N[C@H](Cc3ccc(CN4[C@H](C)CCC[C@@H]4C)cc3)C(=O)N(C)C(C)C)c3ccc4c(c3)OCO4)ccc2c1", "5-hydroxytryptamine receptor 6 (Homo sapiens) (UniProt P50406)", 0),
    ("Oc1ccc2c3c1O[C@H]1c4[nH]c5c(c4C[C@@]4(O)[C@@H](C2)N(CC2CC2)CC[C@]314)C[C@@]1(O)[C@H]2Cc3ccc(O)c4c3[C@@]1(CCN2CC1CC1)[C@H]5O4", "5-hydroxytryptamine receptor 6 (Homo sapiens) (UniProt P50406)", 0),
    ("CCc1cc2c(c(CC)n1)CCC(=O)N2Cc1ccc(-c2ccccc2-c2nnn[nH]2)cc1", "5-hydroxytryptamine receptor 6 (Homo sapiens) (UniProt P50406)", 0),
    ("CCCn1c(=O)c2nc(C34CC5CC(CC3C5)C4)[nH]c2n(CCC)c1=O", "5-hydroxytryptamine receptor 6 (Homo sapiens) (UniProt P50406)", 0),
    ("COc1ccc(Br)cc1S(=O)(=O)NC(=O)/C=C/c1ccccc1Cc1ccc2ccccc2c1", "5-hydroxytryptamine receptor 6 (Homo sapiens) (UniProt P50406)", 0),
    ("O=C(O)CC1CCC2(CC1)CCN(c1cc(OC(F)(F)F)ccc1Cl)CC2", "5-hydroxytryptamine receptor 6 (Homo sapiens) (UniProt P50406)", 0),
    ("O=C(O)COc1cccc(CN(Cc2ccc(-n3cccn3)cc2)S(=O)(=O)c2cccnc2)c1", "5-hydroxytryptamine receptor 6 (Homo sapiens) (UniProt P50406)", 0),
    ("Cc1csc(NC(=O)c2cc(F)cc(Oc3cncnc3)c2)n1", "5-hydroxytryptamine receptor 6 (Homo sapiens) (UniProt P50406)", 0),
    ("Brc1c(NC2=NCCN2)ccc2nccnc12", "5-hydroxytryptamine receptor 6 (Homo sapiens) (UniProt P50406)", 0),
    ("C/C(=N\\NC(=O)[C@@H]1C(=O)NC[C@H]1c1ccccc1)c1cccc(Br)c1", "5-hydroxytryptamine receptor 6 (Homo sapiens) (UniProt P50406)", 0),
    ("CCc1nn2c(C)cc(C)nc2c1Cc1ccc(-c2nnc(C3CCNCC3)o2)cc1", "5-hydroxytryptamine receptor 6 (Homo sapiens) (UniProt P50406)", 0),
    ("O=C(Cc1ccc(Cl)c(Cl)c1)N1CCCC[C@H]1CN1CCCC1", "5-hydroxytryptamine receptor 6 (Homo sapiens) (UniProt P50406)", 0),
    ("CS(=O)(=O)NC[C@H]1CC[C@H](Nc2nc3c(s2)CCSc2ccccc2-3)CC1", "5-hydroxytryptamine receptor 6 (Homo sapiens) (UniProt P50406)", 0),
    ("COc1ccc(/C=C/CCCCOc2ccc(C(=O)c3cccc(C(=O)O)c3)cc2CCC(=O)O)cc1", "5-hydroxytryptamine receptor 6 (Homo sapiens) (UniProt P50406)", 0),
    ("O=C1O[C@]2(CC[C@H](C(=O)Nc3ccn(-c4ccccc4F)n3)CC2)c2cnccc21", "5-hydroxytryptamine receptor 6 (Homo sapiens) (UniProt P50406)", 0),
    ("O=C(Cc1ccccc1)Nc1nc2ccc(Cl)cc2c2nc(-c3ccco3)nn12", "5-hydroxytryptamine receptor 6 (Homo sapiens) (UniProt P50406)", 0),
    ("FC(F)(F)c1c(N2CCC(c3ccccc3)CC2)ccn2c(CC3CC3)nnc12", "5-hydroxytryptamine receptor 6 (Homo sapiens) (UniProt P50406)", 0),
    ("COC(=O)[C@H]1[C@H]2C[C@H]3c4[nH]c5ccccc5c4CCN3C[C@H]2CC[C@@H]1O", "5-hydroxytryptamine receptor 6 (Homo sapiens) (UniProt P50406)", 1),
    ("CN[C@@H]1CCc2[nH]c3ccc(C(N)=O)cc3c2C1", "5-hydroxytryptamine receptor 6 (Homo sapiens) (UniProt P50406)", 0),
    ("COc1ccccc1N1CCN(CCCCNC(=O)c2ccc3ccccc3c2)CC1", "5-hydroxytryptamine receptor 6 (Homo sapiens) (UniProt P50406)", 0),
    ("CC(C)NCC(O)COc1cccc2ccccc12 (centres undefined)", "5-hydroxytryptamine receptor 6 (Homo sapiens) (UniProt P50406)", 1),
    ("O=C(O)C1CN(Cc2ccc(OCc3ccc(Cl)c(Cl)c3)cc2)C1", "5-hydroxytryptamine receptor 6 (Homo sapiens) (UniProt P50406)", 0),
    ("c1ccc(N2CCN(Cc3nc4ccccc4[nH]3)CC2)nc1", "5-hydroxytryptamine receptor 6 (Homo sapiens) (UniProt P50406)", 0),
    ("CC(C)Oc1ccccc1C(=O)Nc1ccccc1C(=O)Nc1cccc(S(=O)(=O)C(F)(F)F)c1", "5-hydroxytryptamine receptor 6 (Homo sapiens) (UniProt P50406)", 0),
    ("N[C@H](C(=O)O)c1ccc(C(=O)O)c(C(=O)O)c1", "5-hydroxytryptamine receptor 6 (Homo sapiens) (UniProt P50406)", 0),
    ("COc1cc2nc(N3CCN(C(=O)c4ccco4)CC3)nc(N)c2cc1OC", "5-hydroxytryptamine receptor 6 (Homo sapiens) (UniProt P50406)", 0),
]

----------
inhibition values, listed per item
- assay target: Alpha-1B adrenergic receptor (Homo sapiens) (UniProt P35368)
- Sequence (P35368 whole entry): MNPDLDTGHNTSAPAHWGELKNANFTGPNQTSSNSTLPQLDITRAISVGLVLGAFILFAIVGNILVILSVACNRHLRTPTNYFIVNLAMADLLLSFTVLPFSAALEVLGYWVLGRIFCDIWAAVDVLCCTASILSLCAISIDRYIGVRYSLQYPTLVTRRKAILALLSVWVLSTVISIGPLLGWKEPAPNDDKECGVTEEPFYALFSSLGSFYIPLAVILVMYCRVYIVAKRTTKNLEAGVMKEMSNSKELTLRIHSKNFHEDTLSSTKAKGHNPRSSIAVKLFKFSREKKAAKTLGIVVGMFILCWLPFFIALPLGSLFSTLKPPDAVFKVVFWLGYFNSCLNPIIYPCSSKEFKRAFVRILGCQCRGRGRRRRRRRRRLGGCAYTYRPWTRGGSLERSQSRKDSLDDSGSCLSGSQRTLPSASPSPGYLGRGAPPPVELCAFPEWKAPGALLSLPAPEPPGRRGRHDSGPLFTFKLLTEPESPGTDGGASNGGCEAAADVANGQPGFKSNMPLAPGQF
- measurement conditions: Compound concentration 10 µM
- Description: PDSP Primary Binding target: ADRA1B - Compounds are tested at 10 uM concentration, plate are incubated at room temperature in the dark for 90 minutes. Reaction are stopped by vacuum filtration onto 0.3% polyethyleneimine soaked filter mats using Filtermate harvester. Scintilation cocktail is then melted onto microwave-dried filters on a hot plate and the radio activity is counted in Microbia counter.

# entry smiles, inhibition, %
measured = [
    ("CCCCN(CCCC)C(=O)CN1C[C@@H](c2ccc3c(c2)OCO3)[C@H](C(=O)O)[C@H]1c1ccc(OC)cc1", -5.54),
    ("CCCCc1nc(Cl)c(CO)n1Cc1ccc(-c2ccccc2-c2nnn[nH]2)cc1", -2.24),
    ("COc1ccc(S(=O)(=O)c2cc(OC)ccc2S(=O)(=O)c2ccc([C@H](C)NS(C)(=O)=O)cc2)cc1", -4.35),
]

These measurements were taken from ChEMBL document CHEMBL5442219.
